Recorded values, source ChEMBL document CHEMBL1153748.

Biological target: Peroxisome proliferator-activated receptor delta (Homo sapiens)
Assay: Agonist activity at human PPARdelta by FRET assay
// classify: if (EC50 < 9 nM) Met else Not met

{"molecule": "Cc1cc(OCc2nc(-c3ccc(OC(C)C)cc3)c(-c3ccc(OC(F)(F)F)cc3)s2)ccc1OCC(=O)O", "class_name": "Not met"}
{"molecule": "Cc1cc(OCc2nc(-c3ccc(OC(C)C)nc3)c(-c3ccc(OC(F)(F)F)cc3)o2)ccc1OCC(=O)O", "class_name": "Met"}
{"molecule": "Cc1cc(OCc2nc(-c3ccc(N4CCOCC4)nc3)c(-c3ccc(OC(F)(F)F)cc3)o2)ccc1OCC(=O)O", "class_name": "Met"}
{"molecule": "CCCc1ccc(-c2oc(COc3ccc(OCC(=O)O)c(C)c3)nc2-c2cnc(OC)nc2)cc1", "class_name": "Not met"}
{"molecule": "Cc1cc(OCc2nc(-c3ccc(N4CCOCC4)cc3)c(-c3ccc(-c4ccccc4)cc3)s2)ccc1OCC(=O)O", "class_name": "Not met"}
{"molecule": "Cc1cc(OCc2nc(-c3cnc(OC(C)C)nc3)c(-c3ccc(OC(F)(F)F)cc3)s2)ccc1OCC(=O)O", "class_name": "Not met"}

---

Target: Peroxisome proliferator-activated receptor delta (Homo sapiens, UniProt Q03181)
Sequence (Q03181 whole entry): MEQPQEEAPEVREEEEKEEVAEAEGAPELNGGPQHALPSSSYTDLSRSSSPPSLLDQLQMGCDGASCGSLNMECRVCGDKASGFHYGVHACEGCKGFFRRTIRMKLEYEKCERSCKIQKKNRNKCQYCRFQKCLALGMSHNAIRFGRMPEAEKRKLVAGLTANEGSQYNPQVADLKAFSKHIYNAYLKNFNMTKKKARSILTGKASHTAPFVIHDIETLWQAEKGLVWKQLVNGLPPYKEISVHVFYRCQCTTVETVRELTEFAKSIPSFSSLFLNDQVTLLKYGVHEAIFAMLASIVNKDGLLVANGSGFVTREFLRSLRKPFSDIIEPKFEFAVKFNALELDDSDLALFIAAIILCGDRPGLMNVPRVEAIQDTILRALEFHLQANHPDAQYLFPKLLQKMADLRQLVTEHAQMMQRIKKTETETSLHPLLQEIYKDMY

{"molecule": "Cc1cc(OCc2nc(-c3ccc(OC(C)C)cc3)c(-c3ccc(C(F)(F)F)cc3)s2)ccc1OCC(=O)O", "EC50 (nM)": 16}
{"molecule": "Cc1cc(OCc2nc(-c3cccnc3)c(-c3ccc(-c4ccccc4)cc3)o2)ccc1OCC(=O)O", "EC50 (nM)": 6}
{"molecule": "Cc1cc(OCc2nc(-c3ccc(OC4CCCC4)cc3)c(-c3ccc(OC(F)(F)F)cc3)s2)ccc1OCC(=O)O", "EC50 (nM)": 15}
{"molecule": "Cc1cc(OCc2nc(-c3ccc(OC4CCCC4)cc3)c(-c3ccc(OC(F)(F)F)cc3)o2)ccc1OCC(=O)O", "EC50 (nM)": 12}
{"molecule": "CCCc1ccc(-c2sc(COc3ccc(OCC(=O)O)c(C)c3)nc2-c2ccc(OC(C)C)cc2)cc1", "EC50 (nM)": 13}
{"molecule": "Cc1cc(OCc2nc(-c3cnc(OC(C)C)nc3)c(-c3ccc(OC(F)(F)F)cc3)s2)ccc1OCC(=O)O", "EC50 (nM)": 14}
{"molecule": "COc1ccc(-c2nc(COc3ccc(OCC(=O)O)c(C)c3)sc2-c2ccc(OC(F)(F)F)cc2)cn1", "EC50 (nM)": 12}
{"molecule": "Cc1cc(OCc2nc(-c3ccc(OC(C)C)nc3)c(-c3ccc(OC(F)(F)F)cc3)o2)ccc1OCC(=O)O", "EC50 (nM)": 14}
{"molecule": "Cc1cc(OCc2nc(-c3ccc(OC(C)C)cc3)c(-c3ccc(OC(F)(F)F)cc3)o2)ccc1OCC(=O)O", "EC50 (nM)": 13}
{"molecule": "CCCc1ccc(-c2oc(COc3ccc(OCC(=O)O)c(C)c3)nc2-c2cnc(OC)nc2)cc1", "EC50 (nM)": 10}
{"molecule": "COc1ccc(-c2nc(COc3ccc(OCC(=O)O)c(C)c3)oc2-c2ccc(OC(F)(F)F)cc2)cn1", "EC50 (nM)": 10}
{"molecule": "Cc1cc(OCc2nc(-c3ccc(N4CCOCC4)cc3)c(-c3ccc(-c4ccccc4)cc3)s2)ccc1OCC(=O)O", "EC50 (nM)": 14}
{"molecule": "Cc1cc(OCc2nc(-c3ccc(OC(C)C)cc3)c(-c3ccc(-c4ccccc4)cc3)s2)ccc1OCC(=O)O", "EC50 (nM)": 10}
{"molecule": "Cc1cc(OCc2nc(-c3ccc(OC(C)C)nc3)c(-c3ccc(OC(F)(F)F)cc3)s2)ccc1OCC(=O)O", "EC50 (nM)": 12}
{"molecule": "Cc1cc(OCc2nc(-c3ccc(OC(C)C)cc3)c(-c3cccc(OC(F)(F)F)c3)s2)ccc1OCC(=O)O", "EC50 (nM)": 16}
{"molecule": "Cc1cc(OCc2nc(-c3ccc(OC(C)C)cc3)c(-c3ccc(OC(F)(F)F)cc3)s2)ccc1OCC(=O)O", "EC50 (nM)": 10}

---

Assay: Cmax in Balb/c mouse at 10 mg/kg, po qd
Settings: in vivo
Each entry below lists one item and its recorded Cmax value.
property_name: Cmax

{"molecule": "Cc1cc(OCc2nc(-c3ccc(OC(C)C)cc3)c(-c3ccc(C(F)(F)F)cc3)s2)ccc1OCC(=O)O", "property_name": "Cmax", "result": "2800 nM"}
{"molecule": "Cc1cc(OCc2nc(-c3cccnc3)c(-c3ccc(-c4ccccc4)cc3)o2)ccc1OCC(=O)O", "property_name": "Cmax", "result": "400 nM"}
{"molecule": "Cc1cc(OCc2nc(-c3ccc(OC(C)C)nc3)c(-c3ccc(OC(F)(F)F)cc3)s2)ccc1OCC(=O)O", "property_name": "Cmax", "result": "4700 nM"}
{"molecule": "Cc1cc(OCc2nc(-c3ccc(OC4CCCC4)cc3)c(-c3ccc(OC(F)(F)F)cc3)s2)ccc1OCC(=O)O", "property_name": "Cmax", "result": "1200 nM"}
{"molecule": "CCCc1ccc(-c2oc(COc3ccc(OCC(=O)O)c(C)c3)nc2-c2cnc(OC)nc2)cc1", "property_name": "Cmax", "result": "2200 nM"}
{"molecule": "COc1ccc(-c2nc(COc3ccc(OCC(=O)O)c(C)c3)sc2-c2ccc(OC(F)(F)F)cc2)cn1", "property_name": "Cmax", "result": "17300 nM"}
{"molecule": "Cc1cc(OCc2nc(-c3ccc(OC(C)C)cc3)c(-c3cccc(OC(F)(F)F)c3)s2)ccc1OCC(=O)O", "property_name": "Cmax", "result": "2400 nM"}
{"molecule": "Cc1cc(OCc2nc(-c3ccc(OC(C)C)cc3)c(-c3ccc(OC(F)(F)F)cc3)s2)ccc1OCC(=O)O", "property_name": "Cmax", "result": "3700 nM"}

---

Reported pEC50 values for a set of compounds
Biological target: Peroxisome proliferator-activated receptor delta (Homo sapiens, UniProt Q03181)
Sequence (Q03181 whole entry): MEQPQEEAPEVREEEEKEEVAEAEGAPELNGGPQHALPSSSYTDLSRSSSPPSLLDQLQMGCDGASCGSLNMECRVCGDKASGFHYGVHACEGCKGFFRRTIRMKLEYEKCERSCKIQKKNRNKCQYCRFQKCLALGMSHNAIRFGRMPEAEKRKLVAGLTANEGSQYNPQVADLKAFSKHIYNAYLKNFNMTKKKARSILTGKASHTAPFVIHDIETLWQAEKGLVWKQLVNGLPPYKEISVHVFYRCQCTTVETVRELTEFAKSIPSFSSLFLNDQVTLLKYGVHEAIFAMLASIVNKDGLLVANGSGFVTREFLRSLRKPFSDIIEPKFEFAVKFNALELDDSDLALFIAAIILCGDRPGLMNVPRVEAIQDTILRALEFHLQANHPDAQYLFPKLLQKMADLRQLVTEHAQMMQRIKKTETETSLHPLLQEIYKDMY
pEC50: −log10 of the molar value.

{"molecule": "COc1ccc(-c2nc(Sc3ccc(OCC(=O)O)c(C)c3)sc2-c2ccc(OC)cc2)cc1", "pEC50": 5.85}
{"molecule": "Cc1cc(OCc2nc(-c3ccc(OC(C)C)cc3)c(-c3ccc(-c4ccccc4)cc3)s2)ccc1OCC(=O)O", "pEC50": 8.05}
{"molecule": "Cc1cc(OCc2nc(-c3ccc4[nH]c(=O)oc4c3)c(-c3ccc(OC(F)(F)F)cc3)s2)ccc1OCC(=O)O", "pEC50": 6.26}
{"molecule": "Cc1cc(OCc2nc(-c3cnc(N4CCOCC4)nc3)c(-c3ccc(OC(F)(F)F)cc3)s2)ccc1OCC(=O)O", "pEC50": 8.52}

---

Target: Peroxisome proliferator-activated receptor delta (Homo sapiens, UniProt Q03181)
Sequence (Q03181 whole entry): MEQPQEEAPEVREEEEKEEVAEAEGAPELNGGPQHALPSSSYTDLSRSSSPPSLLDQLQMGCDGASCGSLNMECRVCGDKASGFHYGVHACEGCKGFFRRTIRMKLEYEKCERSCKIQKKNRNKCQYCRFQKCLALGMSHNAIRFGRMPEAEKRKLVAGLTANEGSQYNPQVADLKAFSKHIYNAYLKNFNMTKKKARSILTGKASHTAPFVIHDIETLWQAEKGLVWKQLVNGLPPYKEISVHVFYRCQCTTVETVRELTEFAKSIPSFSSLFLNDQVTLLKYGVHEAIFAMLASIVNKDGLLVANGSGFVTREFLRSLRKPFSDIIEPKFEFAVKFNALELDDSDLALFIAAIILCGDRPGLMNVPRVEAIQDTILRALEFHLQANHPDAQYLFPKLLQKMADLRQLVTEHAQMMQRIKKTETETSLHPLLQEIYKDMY
pEC50: −log10 of the molar value.
In this section, each of the compounds is paired with its reported pEC50.

{"compound": "Cc1cc(OCc2nc(-c3ccc(C(=O)N(C)C(C)C)cc3)c(-c3ccc(OC(F)(F)F)cc3)s2)ccc1OCC(=O)O", "relation_symbol": "=", "pEC50": 8.70}
{"compound": "Cc1cc(OCc2nc(-c3ccc4c(c3)OCCCO4)c(-c3ccc(OC(F)(F)F)cc3)s2)ccc1OCC(=O)O", "relation_symbol": "=", "pEC50": 7.89}
{"compound": "COc1ccc(-c2nc(COc3ccc4c(c3)CC(C(=O)O)O4)sc2-c2ccc(C(F)(F)F)cc2)cc1 (stereo not drawn)", "relation_symbol": "=", "pEC50": 6.34}
{"compound": "COc1ccc(-c2nc(COc3ccc4c(CC(=O)O)cccc4c3)sc2-c2ccc(C(F)(F)F)cc2)cc1", "relation_symbol": "=", "pEC50": 6.13}
{"compound": "COc1ncc(-c2nc(COc3ccc(OCC(=O)O)c(C)c3)oc2-c2ccc(OC(F)(F)F)cc2)cn1", "relation_symbol": "=", "pEC50": 7.85}
{"compound": "Cc1cc(OCc2nc(-c3ccc(-c4ccccc4)cc3)c(-c3ccc(-c4ccccc4)cc3)s2)ccc1OCC(=O)O", "relation_symbol": "=", "pEC50": 6.89}
{"compound": "COc1ccc(-c2nc(COc3ccc(OCC(=O)O)c(C)c3)sc2-c2ccc(C(C)(C)C)cc2)cc1", "relation_symbol": "=", "pEC50": 6.14}
{"compound": "CCC(C)Oc1ccc(-c2nc(COc3ccc(OCC(=O)O)c(C)c3)sc2-c2ccc(OC(F)(F)F)cc2)cc1 (stereo not drawn)", "relation_symbol": "=", "pEC50": 7.74}
{"compound": "COc1ccc(-c2csc(COc3ccc(OCC(=O)O)c(C)c3)n2)cc1", "relation_symbol": "=", "pEC50": 5.39}
{"compound": "COc1ccc(-c2nc(COc3ccc(OCC(=O)O)c(C)c3)sc2-c2ccc(OC(F)(F)F)cc2)cc1F", "relation_symbol": "=", "pEC50": 7.25}
{"compound": "COc1ccc(-c2nc(COc3ccc(OCC(=O)O)c(C)c3)oc2-c2ccc(OC)cc2)cc1", "relation_symbol": "=", "pEC50": 6.92}
{"compound": "CCCc1ccc(-c2oc(COc3ccc(OCC(=O)O)c(C)c3)nc2-c2cnc(OC)nc2)cc1", "relation_symbol": "=", "pEC50": 8.05}
{"compound": "COc1ccc(-c2nc(COc3ccc(CC(=O)O)cc3)sc2-c2ccc(C(F)(F)F)cc2)cc1", "relation_symbol": "=", "pEC50": 5.89}
{"compound": "COc1ccc(-c2sc(COc3ccc(OCC(=O)O)c(C)c3)nc2C)cc1", "relation_symbol": "<", "pEC50": 5.00}
{"compound": "Cc1cc(OCc2nc(-c3ccc(C(F)(F)F)cc3)cs2)ccc1OCC(=O)O", "relation_symbol": "=", "pEC50": 5.86}
{"compound": "CCCc1cc(OCc2nc(-c3ccc(OC)cc3)c(-c3ccc(C(F)(F)F)cc3)s2)ccc1OCC(=O)O", "relation_symbol": "=", "pEC50": 7.70}
{"compound": "COc1ccc(-c2nc(CSc3ccc(CC(=O)O)cc3Cl)sc2-c2ccc(C(F)(F)F)cc2)cc1", "relation_symbol": "=", "pEC50": 7.21}
{"compound": "CCN(CC)c1ccc(-c2nc(COc3ccc(OCC(=O)O)c(C)c3)sc2-c2ccc(OC(F)(F)F)cc2)cc1", "relation_symbol": "=", "pEC50": 7.52}
